Target: rat GnRH receptor (Rattus norvegicus, UniProt P30969)
Construct: or rat pituitaries (Pel Freez Biologicals, Rogers, Ark.) were homogenized; tissue Pel Freez Biologicals; host or cells: rat pituitaries (membrane preparation)
Sequence (P30969 whole entry): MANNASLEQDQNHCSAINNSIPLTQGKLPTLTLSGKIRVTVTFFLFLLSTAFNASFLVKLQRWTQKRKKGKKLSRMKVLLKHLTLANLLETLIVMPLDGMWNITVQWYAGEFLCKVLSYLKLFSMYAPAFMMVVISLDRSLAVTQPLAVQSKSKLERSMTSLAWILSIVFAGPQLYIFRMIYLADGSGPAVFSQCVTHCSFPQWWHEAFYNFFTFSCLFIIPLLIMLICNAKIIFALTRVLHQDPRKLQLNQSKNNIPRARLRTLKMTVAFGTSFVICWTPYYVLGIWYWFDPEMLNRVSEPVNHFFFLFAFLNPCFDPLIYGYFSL
Assay: Radioligand binding: inhibition of 125I-GnRH-A binding to rat GnRH receptor (rat pituitary membranes)
Details: read-out: Ki (nM), Inhibition Binding of 125I-GnRH-A to GnRH Receptors
The compounds listed here are annotated with their log10 of Ki.
// units: nM (pre-log); metric: Ki; scale: log10

Compound	log10 of Ki
COc1nc(NCCN2CCNCC2)nc(OC)c1NC(=O)c1ccc(Cc2cc3c(cc2C)C(C)(C)OC3(C)C)o1 [Example D14]	-0.40
COc1nc(N(C)Cc2cccnc2)nc(OC)c1NC(=O)c1ccc(Cc2cc3c(cc2C)C(C)(C)OC3(C)C)o1 [Example D38]	1.18
COc1nc(N(C)C)nc(OC)c1NC(=O)c1ccc(Cc2cc3c(cc2C)C(C)(C)CCC3(C)C)o1 [Example B2]	1.04
COc1nc(N(CCCN)CCCN)nc(OC)c1NC(=O)c1ccc(Cc2cc3c(cc2C)C(C)(C)OC3(C)C)o1 [Example D16]	0.04
COc1nc(Oc2ccccc2)nc(OC)c1NC(=O)c1ccc(Cc2cc3c(cc2C)C(C)(C)OC3(C)C)o1 [Example A2]	0.95
CNc1nc(OC)c(NC(=O)c2ccc(Cc3cc4c(cc3C)C(C)(C)CCC4(C)C)o2)c(OC)n1 [Example B1]	-0.10

[in] Entry COc1nc(NCCN(C)C(=O)c2ccc(Cc3cc4c(cc3C)C(C)(C)OC4(C)C)o2)nc(OC)c1NC(=O)c1ccc(Cc2cc3c(cc2C)C(C)(C)OC3(C)C)o1 [Example D2] : reported log10 of Ki = ?
[out] 1.04

[in] Entry COc1nc(N(C)C)nc(OC)c1NC(=O)c1ccc(Cc2cc3c(cc2C)C(C)(C)OC3(C)C)o1 [Example D8] : reported log10 of Ki = ?
[out] 1.49

[in] Entry COc1nc(NCCCN2CCOCC2)nc(OC)c1NC(=O)c1ccc(Cc2c(C)cc(C)c3c2OCC3(C)C)o1 [Example H6] : reported log10 of Ki = ?
[out] 1.08

----------
Biological target: human GnRH receptors (Homo sapiens, UniProt P30968)
Construct: expressed in transfected cells; host or cells: HEK 293 cells, stably transfected; membranes
Sequence (P30968 whole entry): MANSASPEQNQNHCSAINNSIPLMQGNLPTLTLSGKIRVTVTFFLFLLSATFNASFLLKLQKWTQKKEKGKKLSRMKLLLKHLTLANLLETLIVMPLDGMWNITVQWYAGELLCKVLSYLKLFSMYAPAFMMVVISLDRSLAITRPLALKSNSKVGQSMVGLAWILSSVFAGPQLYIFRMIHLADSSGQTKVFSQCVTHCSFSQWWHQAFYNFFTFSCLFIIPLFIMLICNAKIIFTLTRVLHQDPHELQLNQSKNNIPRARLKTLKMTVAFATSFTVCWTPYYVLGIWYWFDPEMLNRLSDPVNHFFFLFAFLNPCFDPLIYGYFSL
Test: Radioligand binding: inhibition of 125I-GnRH-A binding to human GnRH receptor membranes
Details: HEK 293 cell membranes
Reported property: Ki

Record excerpt, results attached:
Smiles record	Experimental system	Result
COc1nc(NCCCn2ccnc2)nc(OC)c1NC(=O)c1ccc(Cc2cc3c(cc2C)C(C)(C)OC3(C)C)o1	human GnRH receptors (Homo sapiens, UniProt P30968)	8.7 nM
COc1nc(NCCCN2CCN(C)CC2)nc(OC)c1NC(=O)c1ccc(Cc2c(C)cc3c(c2C)C(C)(C)CCO3)o1	human GnRH receptors (Homo sapiens, UniProt P30968)	24 nM
COc1nc(N2CCN(c3cc(C(F)(F)F)nc4ccccc34)CC2)nc(OC)c1NC(=O)c1ccc(Cc2cc3c(cc2C)C(C)(C)OC3(C)C)o1	human GnRH receptors (Homo sapiens, UniProt P30968)	500 nM
COc1nc(N(C)CCCCCCO)nc(OC)c1NC(=O)c1ccc(Cc2cc3c(cc2C)C(C)(C)OC3(C)C)o1	human GnRH receptors (Homo sapiens, UniProt P30968)	12 nM
CCOC(=O)CN(Cc1ccccc1)c1nc(OC)c(NC(=O)c2ccc(Cc3cc4c(cc3C)C(C)(C)OC4(C)C)o2)c(OC)n1	human GnRH receptors (Homo sapiens, UniProt P30968)	202 nM

[in] Entry COc1nc(NC2CCN(Cc3ccccc3)CC2)nc(OC)c1NC(=O)c1ccc(Cc2cc3c(cc2C)C(C)(C)OC3(C)C)o1 : reported Ki = ?
[out] 46 nM

[in] Entry COc1nc(N(C)Cc2cccc(C)n2)nc(OC)c1NC(=O)c1ccc(Cc2cc3c(cc2C)C(C)(C)OC3(C)C)o1 : reported Ki = ?
[out] 54 nM
